These measurements were taken from patent US20230140635A1.

- experimental.system: 5-HT2C (Homo sapiens)
- Sequence (P28335 33-458): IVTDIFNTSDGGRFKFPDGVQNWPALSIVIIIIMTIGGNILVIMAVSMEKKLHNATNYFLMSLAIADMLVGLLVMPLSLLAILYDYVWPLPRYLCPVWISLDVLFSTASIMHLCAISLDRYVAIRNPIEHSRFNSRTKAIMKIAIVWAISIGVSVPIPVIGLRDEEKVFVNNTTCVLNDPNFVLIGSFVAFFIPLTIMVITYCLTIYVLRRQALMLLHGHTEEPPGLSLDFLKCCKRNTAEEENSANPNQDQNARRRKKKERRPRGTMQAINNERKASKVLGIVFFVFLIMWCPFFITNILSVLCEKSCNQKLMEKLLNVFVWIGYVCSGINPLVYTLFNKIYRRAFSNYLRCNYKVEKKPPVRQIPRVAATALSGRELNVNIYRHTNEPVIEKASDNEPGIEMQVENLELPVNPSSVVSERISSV
- assay.overview: cell-based
- Set-up: expressed in transfected cells; host or cells: HEK293T
- applied.conditions: found by the inventors; read-out: functional potency at human 5-HT2C receptors
observation.type: EC50

EC50 reading for CN(C)CCc1cn(C)c2cccc(O)c12 [Example 1, reference compound] : ~10 nM

###

Listing: IC50 of selected compounds
- experimental.system: 5-HT2A (Homo sapiens, UniProt P28223)
- Sequence (P28223 whole entry): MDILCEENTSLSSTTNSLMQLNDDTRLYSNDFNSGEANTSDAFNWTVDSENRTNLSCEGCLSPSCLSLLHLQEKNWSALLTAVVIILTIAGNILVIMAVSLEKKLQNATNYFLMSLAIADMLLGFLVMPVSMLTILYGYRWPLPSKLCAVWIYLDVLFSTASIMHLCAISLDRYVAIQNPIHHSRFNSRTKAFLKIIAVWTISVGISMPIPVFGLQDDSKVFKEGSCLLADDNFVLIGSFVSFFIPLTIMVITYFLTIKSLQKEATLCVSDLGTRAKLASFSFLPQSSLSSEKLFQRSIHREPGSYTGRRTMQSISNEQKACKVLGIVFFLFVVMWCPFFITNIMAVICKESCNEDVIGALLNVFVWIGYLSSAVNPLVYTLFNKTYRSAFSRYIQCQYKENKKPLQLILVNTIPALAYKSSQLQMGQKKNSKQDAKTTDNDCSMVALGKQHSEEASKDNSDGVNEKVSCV
- assay.overview: 5-HT2 Gq-Dissociation BRET assay
- Type: cell-based
- Parameters: expressed in transfected cells; host or cells: HEK293T
- applied.conditions: HEK293T cells, 1 hour at 37° C.
Where a name gives a salt, the structure may show the parent alone.
// units = nM; emit number, no label

Known results for compounds:
>  <compound>
CC(C)N(C)CCc1cn(C)c2cccc(O)c12 [Example 13, hydrochloride]

>  <IC50 [nM]>
112

$$$$
>  <compound>
CCN(C)CCc1cn(C)c2cccc(O)c12 [Example 12, hydrochloride]

>  <IC50 [nM]>
133

$$$$
>  <compound>
COc1ccccc1CNCCc1cn(C)c2cccc(O)c12 [Example 24, hydrochloride]

>  <IC50 [nM]>
10

$$$$

Value of measured IC50 for the entry CN(C)CCc1cn(C2CCC2)c2cccc(O)c12 : 4050

Entry CN(CCc1cn(C)c2cccc(O)c12)CC(F)F [Example 17, hydrochloride] — recorded IC50 = 8400

Per the record, Cn1cc(CCNCC2CC2)c2c(O)cccc21 [Example 21, hydrochloride] has IC50 of 497

Entry CN(C)CCc1cn(CC2CC2)c2cccc(O)c12 , IC50 reported as 28
